- System: sh-DNMT1 NCI-H82 cell
- assayName: Inhibitory effect (IC50) on sh-DNMT1 NCI-H82 cell, Promega CellTiter-Glo kit
- Assay type: cell-based
- measurementParameters: Homo sapiens, DNMT1 knocked down NCI-H82 cell
property: IC50 (µM)

compound | systemUnderTest | IC50, µM
CCCCCCC1c2c(ccc(OC)c2OC)C=C2c3cc4c(cc3CCN21)OCO4 (stereo not drawn) | sh-DNMT1 NCI-H82 cell | 3.65
COc1ccc2c(c1OC)C(C(Cl)(Cl)Cl)N1CCc3cc4c(cc3C1=C2)OCO4 (stereo not drawn) | sh-DNMT1 NCI-H82 cell | 14.3
C=CCCC1c2c(ccc(OC)c2OC)C=C2c3cc4c(cc3CCN21)OCO4 (stereo not drawn) | sh-DNMT1 NCI-H82 cell | 18.8

[I] CCCCC1c2c(ccc(OC)c2OC)C=C2c3cc4c(cc3CCN21)OCO4 (stereo not drawn)
[II] COc1ccc2c(c1OC)C(C(F)(F)F)N1CCc3cc4c(cc3C1=C2)OCO4 (stereo not drawn)
[III] COc1ccc2c(c1OC)C(C1CCCC1)N1CCc3cc4c(cc3C1=C2)OCO4 (stereo not drawn)
Put the items in order so that reported IC50 rises from first to last. Give the labels in the order requested.
III, I, II
(III: 6.58 µM, I: 12.3 µM, II: 24.2 µM)

[A] COc1ccc2c(c1OC)C(C)N1CCc3cc4c(cc3C1=C2)OCO4 (stereo not drawn)
[B] CCC1c2c(ccc(OC)c2OC)C=C2c3cc4c(cc3CCN21)OCO4 (stereo not drawn)
Hi! Which is lower in terms of IC50, the first one A or the second one B ? Which one? Tell me its label.
B

[a] CCCC1c2c(ccc(OC)c2OC)C=C2c3cc4c(cc3CCN21)OCO4 (stereo not drawn)
[b] COc1ccc2c(c1OC)CN1CCc3cc4c(cc3C1=C2)OCO4
Hi! Which is lower in terms of IC50, the first one a or the second one b ? Which one? Tell me its label.
a

---

- Test system: mPTP-inactive Daoy cell
- assayName: Inhibitory effect (IC50) on mPTP-inactive Daoy cell (PPIF shRNA), Promega CellTiter-Glo kit
- Format: cell-based
- measurementParameters: Homo sapiens, Daoy cell transfected with virus vector carrying PPIF shRNA
// values below are reported IC50
Report the value in µM with no unit label.

Recorded IC50, per entry:
compound | IC50, µM
C=CCC1c2c(ccc(OC)c2OC)C=C2c3cc4c(cc3CCN21)OCO4 (stereo not shown) [compound AB31891] | 3.12
COc1ccc2c(c1OC)CN1CCc3cc4c(cc3C1=C2)OCO4 [compound AB31713] | 12.5

GET /values?item= COc1ccc2c(c1OC)C(C)N1CCc3cc4c(cc3C1=C2)OCO4 (stereo not shown) [compound AB31886] &system= mPTP-inactive Daoy cell returns IC50: 5.74

GET /values?item= COc1ccc2c(c1OC)C(C1CCCCC1)N1CCc3cc4c(cc3C1=C2)OCO4 (stereo not shown) [compound AB31893] &system= mPTP-inactive Daoy cell returns IC50: 2.5

---

// values below are reported IC50
- System: mPTP-inactive Daoy cell
- assayName: Inhibitory effect (IC50) on mPTP-inactive Daoy cell (PPIF shRNA), Promega CellTiter-Glo kit
- Assay type: cell-based
- measurementParameters: Homo sapiens, Daoy cell transfected with virus vector carrying PPIF shRNA
Report the value in µM with no unit label.

Recorded IC50, per entry:
compound | unitTag | IC50
CCCC1c2c(ccc(OC)c2OC)C=C2c3cc4c(cc3CCN21)OCO4 (stereo not drawn) [compound AB31884] | µM | 2.71
CCCCCCC1c2c(ccc(OC)c2OC)C=C2c3cc4c(cc3CCN21)OCO4 (stereo not drawn) [compound AB35435] | µM | 0.69

According to the records, this compound CCC1c2c(ccc(OC)c2OC)C=C2c3cc4c(cc3CCN21)OCO4 (stereo not drawn) [compound AB31883] displays IC50 of 2.45

According to the records, this compound CCCCC1c2c(ccc(OC)c2OC)C=C2c3cc4c(cc3CCN21)OCO4 (stereo not drawn) [compound AB31875] displays IC50 of 6.25

---

// values below are reported pIC50
- System: mPTP-inactive Daoy cell
- assayName: Inhibitory effect (IC50) on mPTP-inactive Daoy cell (PPIF shRNA), Promega CellTiter-Glo kit
- Type: cell-based
- measurementParameters: Homo sapiens, Daoy cell transfected with virus vector carrying PPIF shRNA
# reply with the number alone; pIC50 is -log10 of concentration in mol/L

Recorded pIC50, per entry:
compound | systemUnderTest | testValue
COc1ccc2c(c1OC)C(C1CCCC1)N1CCc3cc4c(cc3C1=C2)OCO4 (centres unmarked) | mPTP-inactive Daoy cell | 5.59
C=CCCC1c2c(ccc(OC)c2OC)C=C2c3cc4c(cc3CCN21)OCO4 (centres unmarked) | mPTP-inactive Daoy cell | 5.04
COc1ccc2c(c1OC)C(C(F)(F)F)N1CCc3cc4c(cc3C1=C2)OCO4 (centres unmarked) | mPTP-inactive Daoy cell | 4.54

GET /values?item= COc1ccc2c(c1OC)C(C(C)C)N1CCc3cc4c(cc3C1=C2)OCO4 (centres unmarked) &system= mPTP-inactive Daoy cell returns pIC50: 5.50

GET /values?item= COc1ccc2c(c1OC)C(C(Cl)(Cl)Cl)N1CCc3cc4c(cc3C1=C2)OCO4 (centres unmarked) &system= mPTP-inactive Daoy cell returns pIC50: 4.90
